Exercise: for every item that follows, state its recorded log10 IC50.
# Measurement Target: Gamma-secretase
# Procedure Summary: Inhibition of human gamma secretase assessed as amyloid-beta40 peptide production […] by ELISA
# Assay type: cell-based
# Recorded Conditions: hek293
Note: values are log10 of IC50 expressed in nM.

C[C@H](C(=O)NCc1cc(F)cc(F)c1)C(=O)N[C@@H]1C(=O)N(C)c2ccccc2-c2ccccc21 ... 0.94
C[C@@H](C(=O)NCc1cc(F)cc(F)c1)C(=O)N[C@@H]1C(=O)N(C)c2ccccc2-c2ccccc21 ... 0.30
C[C@H](OC(=O)Nc1ccccc1)C(=O)NC1C(=O)N(C)c2ccccc2-c2ccccc21 (stereo partly drawn) ... 3.43

Hey, can you go through the list below and give me log10 IC50 for every item?
1. CC(C(=O)NC(CO)c1ccccc1)C(=O)NC1C(=O)N(C)c2ccccc2-c2ccccc21 (stereo not drawn)
2. CC(C(=O)NCC(F)(F)F)C(=O)NC1C(=O)N(C)c2ccccc2-c2ccccc21 (stereo not drawn)
3. CC(C(=O)NCc1cc(F)cc(F)c1)C(=O)N[C@@H]1C(=O)N(C)c2ccccc2-c2ccccc21 (mixture of isomers)
4. CC(C(=O)NCc1cc(F)cc(F)c1)C(=O)NC1C(=O)N(C)c2ccccc2-c2ccccc21 (stereo not drawn)

[4.34, 1.30, 0.49, 1.34]

Hey, can you go through the list below and give me log10 IC50 for every item?
1. CC(C(=O)NCCC(F)(F)F)C(=O)NC1C(=O)N(C)c2ccccc2-c2ccccc21 (stereo not drawn)
2. CCOCCNC(=O)C(C)C(=O)NC1C(=O)N(C)c2ccccc2-c2ccccc21 (stereo not drawn)

[1.57, 3.48]

Hey, can you go through the list below and give me log10 IC50 for every item?
1. CC(C(=O)NCC1CC1)C(=O)NC1C(=O)N(C)c2ccccc2-c2ccccc21 (stereo not drawn)
2. C[C@H](OC(=O)NCC(F)(F)C(F)(F)F)C(=O)N[C@@H]1C(=O)N(C)c2ccccc2-c2ccccc21
3. CC(C(=O)NCc1ccccc1)C(=O)NC1C(=O)N(C)c2ccccc2-c2ccccc21 (stereo not drawn)
4. CC(C(=O)NCc1cc(F)cc(F)c1)C(=O)N[C@H]1C(=O)N(C)c2ccccc2-c2ccccc21 (mixture of isomers)

1: 1.95; 2: 0.93; 3: 1.18; 4: 2.79

Hey, can you go through the list below and give me log10 IC50 for every item?
1. CC(C(N)=O)C(=O)NC1C(=O)N(C)c2ccccc2-c2ccccc21 (stereo not drawn)
2. CC(C(=O)NC(C)c1ccccc1)C(=O)NC1C(=O)N(C)c2ccccc2-c2ccccc21 (stereo not drawn)
3. CC(C(=O)NCC(F)(F)C(F)(F)F)C(=O)N[C@@H]1C(=O)N(C)c2ccccc2-c2ccccc21 (mixture of isomers)

[3.72, 3.76, 0.48]

Look up log10 IC50: CC(C(=O)NC1CCc2ccccc21)C(=O)NC1C(=O)N(C)c2ccccc2-c2ccccc21 (stereo not drawn)
4.08

###

# Procedure Summary: Maximal achievable bioavailability in human liver microsomes
# Type: ADME, Microsome
# Recorded Conditions: read-out: Max Achievable Bioavailability
// NB: equality with 60% counts as criterion not met; only Fh strictly below is criterion met

C[C@H](OC(=O)NCC(F)(F)C(F)(F)F)C(=O)N[C@@H]1C(=O)N(C)c2ccccc2-c2ccccc21 ... criterion not met
CC(C(=O)NCC(F)(F)F)C(=O)NC1C(=O)N(C)c2ccccc2-c2ccccc21 (stereo unspecified) ... criterion met
CC(C(=O)NCc1cc(F)cc(F)c1)C(=O)NC1C(=O)N(C)c2ccccc2-c2ccccc21 (stereo unspecified) ... criterion met
CC(C(=O)NC1C(=O)N(C)c2ccccc2-c2ccccc21)C(=O)NC(C)(C)c1ccccc1 (stereo unspecified) ... criterion met
CC(C(=O)NCC1CC1)C(=O)NC1C(=O)N(C)c2ccccc2-c2ccccc21 (stereo unspecified) ... criterion met

Quick check: does CC(C(=O)NCC(F)(F)C(F)(F)F)C(=O)N[C@@H]1C(=O)N(C)c2ccccc2-c2ccccc21 (mixture of isomers) have Fh under 60%?
criterion met
